The reported numbers originate from patent US20090099195A1.

# Experimental system: UniProtKB P56373
# Sequence (P56373 whole entry): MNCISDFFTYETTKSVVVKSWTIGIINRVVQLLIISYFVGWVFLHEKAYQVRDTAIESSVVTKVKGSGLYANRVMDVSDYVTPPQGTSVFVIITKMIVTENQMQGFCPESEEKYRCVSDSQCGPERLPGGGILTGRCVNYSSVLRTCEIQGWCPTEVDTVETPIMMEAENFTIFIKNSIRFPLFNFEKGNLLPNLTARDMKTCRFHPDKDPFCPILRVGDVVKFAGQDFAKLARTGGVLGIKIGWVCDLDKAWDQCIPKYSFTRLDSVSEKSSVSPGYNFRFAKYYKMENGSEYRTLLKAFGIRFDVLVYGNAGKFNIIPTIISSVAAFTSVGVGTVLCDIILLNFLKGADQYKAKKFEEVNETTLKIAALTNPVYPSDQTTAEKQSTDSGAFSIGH
# Experiment description: hP2X3 FLIPR calcium (Fluo-4) antagonist assay, clone B
# Condition set: Human P2X3 FLIPR Clone B IC50 (nM), RLE cells expressing hP2X3 clone B (NM_002559); agonist 500 nM α,β-methylene-ATP
Endpoint label: IC50 (nM)

                                   compound  experimental_system  endpoint_label  measured_result
0  CC(=O)N1CCN(c2nc(NC(c3ccc(Cl)cc3)C3CC3)c3c(n2)C(=O)N(C(C)C)C3)CC1 (stereo not drawn) [Example 27]     UniProtKB P56373            IC50              140
1  CC(=O)N(C)C1CCN(c2nc(NC(C)(C)Cc3ccc(Cl)cc3)c3c(n2)C(=O)N(C(C)C)C3)C1 (stereo not drawn) [Example 67]     UniProtKB P56373            IC50              450
2  CC(=O)N1CCN(c2nc(N[C@H](C)c3ccccc3C(F)(F)F)c3c(n2)C(=O)N(C(C)C)C3)CC1 [Example 226]     UniProtKB P56373            IC50             4400
3  CCN1CCN(c2nc(NC(c3ccccc3)c3ccc(C)cc3)c3c(n2)C(=O)N(C(C)C)C3)CC1 (stereo not drawn) [Example 101]     UniProtKB P56373            IC50              150
4  CC(=O)N1CCN(c2nc(N[C@@H](C)c3cnc4ccccc4c3)c3c(n2)C(=O)N(C(C)C)C3)CC1 (single isomer, unassigned) [Example 345]     UniProtKB P56373            IC50               66

a. CC(C)N1Cc2c(NC3c4cccnc4CCc4c(F)cccc43)nc(N(C)CCN(C)C)nc2C1=O (stereo not drawn) [Example 121]
b. CC(=O)N1CCN(c2nc3c(c(N(Cc4cc5ccccc5cn4)CC(F)(F)F)n2)CN(C(C)C)C3=O)CC1 [Example 264]
Field: lower IC50 | Options: a / b Selection: enter the item's label.
a
(a: 150 nM, b: 2900 nM)

1. CC(=O)N1CCN(c2nc3c(c(N4CCCC4c4cccc(C)c4)n2)CN(C(C)C)C3=O)CC1 (stereo not drawn) [Example 269]
2. CCC(C)N1Cc2c(NCc3cnc4ccccc4c3)nc(N3CCN(C(C)=O)CC3)nc2C1=O (single isomer, unassigned; (+)) [Example 308]
3. CC(=O)N1CCN(c2nc(NCc3ccc4nc(C)ccc4c3)c3c(n2)C(=O)N(C(C)C)C3)CC1 [Example 242]
Hello, I need these entries ordered by IC50, highest reading first. Thanks! Answer format: the labels, in the requested order.
1, 3, 2

A. CC(C)N1Cc2c(NCc3cnc4ccccc4c3)nc(N3CCC(F)(F)C3)nc2C1=O [Example 216]
B. CC(=O)N1CCN(c2nc(NCC(c3ccccc3)c3ccccc3)c3c(n2)C(=O)N(C(C)C)C3)CC1 [Example 91]
Field: lower IC50 | Options: A / B Selection: enter the item's label.
B

a. CC(=O)N1CCN(c2nc(N[C@H](C)c3ccc(C(C)(C)C#N)cc3)c3c(n2)C(=O)N(C(C)C)C3)CC1 [Example 161]
b. CC(=O)N1CCN(c2nc(N[C@H](C)c3cccc(C(F)(F)F)c3F)c3c(n2)C(=O)N(C(C)C)C3)CC1 [Example 187]
Field: lower IC50 | Options: a / b Selection: enter the item's label.
b
(b: 96 nM, a: 720 nM)
